system: SNB-75 CNS; assay: NCI-60 one-dose screen, 48 h; details: 10 µM
This is part of a sample that, as a whole, favours compounds with a hit. Of some 83,000 tested, about 20% had one in any assay. Active and inactive are the calls of the source. Rule for the calls: active = growth percent below 10; inactive = the rest.
Outcomes: t = active, f = inactive

compound	label_value
NS(=O)(=O)c1ccc(N=Nc2c(O)n(CC(=O)Nc3ccccc3Br)c3ccccc23)cc1	f
COc1ccc(C(=O)Nc2sc3c(c2C#N)CCC(=O)C3)cc1C(F)(F)F	t
CC1(C)CC[C@]2(C(=O)N3CCOCC3)CC[C@]3(C)C(=CC[C@@H]4[C@@]5(C)CC[C@H](NCO)C(C)(C)[C@@H]5CC[C@]43C)[C@H]2C1	t
COc1ccc2[nH]cc(/C=N/Nc3ccc(Br)cn3)c2c1	f
COC1CC(Cn2cc(COc3ccc4ccc(=O)oc4c3)nn2)C(OCc2ccccc2)C(OCc2ccccc2)C1OCc1ccccc1 (centres undefined)	f
N#Cc1c(NC(=O)c2ccc(C(O)(C(F)(F)F)C(F)(F)F)cc2)sc2c1CCC(=O)C2	f
CC1(c2ccccc2)NC(=O)N(CC(=O)Nc2ccc(C(=O)/C=C/c3ccc(Br)cc3)cc2)C1=O (centres undefined)	f
COc1ccc(N(C)c2cc(C#N)nc3ccccc23)cc1/C=C/C(=O)NO	t
Cc1ccc(-c2cc(C(=O)N=Nc3c(O)[nH]c4ccc(Br)cc34)c3ccccc3n2)cc1	f
CCOC(=O)C1=C(N)N(c2ccccc2)C2=C(C(=O)CC(C)(C)C2)C1c1ccccc1OC (centres undefined)	f
O=C1Nc2ccc(Cl)cc2/C1=C/c1ccc(OCc2ccccn2)cc1	f
Cc1ccc(/C=C(\C#N)n2nnc3c(F)cccc32)cc1	f
C=C[C@@]12CN3CC[C@]1(O)[C@@](C(=O)OC)(CO2)c1[nH]c2ccccc2c1C3	f
CN1CCN(c2ccc(Nc3nc(NCCCNC(=O)C4CCCCC4)c4sccc4n3)cc2)CC1	f
O=C(CNc1nc(-c2ccccc2)cs1)Nc1cccc(Cl)c1	f
Nc1nc(Nc2ccccc2)nn1Cc1c(Cl)cccc1Cl	f
O=C(c1ccc(Cl)cc1)C1[C@H](c2ccccc2Br)[C@@H](c2ccccc2)NC12C(=O)Nc1ccccc12 (some centres undefined)	f
COc1ccc(CN2[C@@H](C(=O)NCc3ccc(C(=O)NO)cc3)Cc3c([nH]c4ccccc34)[C@@H]2C)cc1	f
O=c1c2ccccc2nc(COc2ccccc2)n1/N=C/c1ccc(N2CCOCC2)cc1	f
